test_readout: melting point

Use the examples below as a reference point.
COc1cc(C=C2N=C(c3cc(OC)c(OC)c(OC)c3)NC2=O)cc(OC)c1OC = 212 to 214 °C
COc1cc(C=C2N=C(c3cc(OC)c(OC)c(OC)c3)N(c3nc(-c4ccccc4)cs3)NC2=O)cc(OC)c1OC [Compound 13a] = 212 to 214 °C
COc1cc(C=C2N=C(c3cc(OC)c(OC)c(OC)c3)N(c3nc(-c4ccc(Br)cc4)cs3)NC2=O)cc(OC)c1OC [Compound 13c] = 212 to 214 °C
COc1cc(C=C2N=C(c3cc(OC)c(OC)c(OC)c3)N(C(N)=S)NC2=O)cc(OC)c1OC (hydrate or solvate) = 239 to 241 °C
COc1cc(C=C(NC(=O)c2cc(OC)c(OC)c(OC)c2)C(=O)NNc2nc(-c3ccc(Br)cc3)cs2)cc(OC)c1OC [Compound 11c] = 212 to 214 °C

Q: Query (compound): COc1cc(C=C(NC(=O)c2cc(OC)c(OC)c(OC)c2)C(=O)NNC(=O)c2ccncc2)cc(OC)c1OC ; field requested: melting point
Ans: 227 to 229 °C

Q: Query (compound): COc1cc(C=C2N=C(c3cc(OC)c(OC)c(OC)c3)N(N)C2=O)cc(OC)c1OC ; field requested: melting point
Ans: 205 to 207 °C

Q: Query (compound): COc1cc(C=C(NC(=O)c2cc(OC)c(OC)c(OC)c2)C(=O)NNc2nc(-c3cccc([N+](=O)[O-])c3)cs2)cc(OC)c1OC [Compound 11d] ; field requested: melting point
Ans: 212 to 214 °C

Q: Query (compound): COc1cc(C=C(NC(=O)c2cc(OC)c(OC)c(OC)c2)C(=O)NNC(=O)c2cccc(O)c2)cc(OC)c1OC ; field requested: melting point
Ans: 241 to 243 °C

Q: Query (compound): COc1cc(C=C2N=C(c3cc(OC)c(OC)c(OC)c3)N(c3nc(-c4ccc(Cl)cc4)cs3)NC2=O)cc(OC)c1OC [Compound 13b] ; field requested: melting point
Ans: 212 to 214 °C

Q: Query (compound): COc1cc(C=C2N=C(c3cc(OC)c(OC)c(OC)c3)N(c3nc(-c4cccc([N+](=O)[O-])c4)cs3)NC2=O)cc(OC)c1OC [Compound 13d] ; field requested: melting point
Ans: 212 to 214 °C

Q: Query (compound): COc1cc(C=C(NC(=O)c2cc(OC)c(OC)c(OC)c2)C(=O)NNC(=O)c2ccc(Br)cc2)cc(OC)c1OC ; field requested: melting point
Ans: 236 to 238 °C

Q: Query (compound): COc1cc(C=C(NC(=O)c2cc(OC)c(OC)c(OC)c2)C(=O)NNc2nc(-c3ccc(Cl)cc3)cs2)cc(OC)c1OC [Compound 11b] ; field requested: melting point
Ans: 212 to 214 °C

###

- System: MDA-MB-231
- protocol_notes: MTT cytotoxic activity against breast MDA-MB-231 cancer cell line
- Assay type: cell-based
- run_conditions: Homo sapiens, MDA-MB-231; MTT assay, 24 h treatment
test_readout: pIC50
Schema: pIC50 number; meaning minus log10 of the concentration expressed in molar units.

Use the examples below as a reference point.
COc1cc(C=C(NC(=O)c2cc(OC)c(OC)c(OC)c2)C(=O)NNC(N)=S)cc(OC)c1OC = 4.50
CCOC(=O)Cc1csc(NNC(=O)C(=Cc2cc(OC)c(OC)c(OC)c2)NC(=O)c2cc(OC)c(OC)c(OC)c2)n1 = 5.32
COc1cc(C=C2N=C(c3cc(OC)c(OC)c(OC)c3)NC2=O)cc(OC)c1OC = 4.43
COc1cc(C=C2N=C(c3cc(OC)c(OC)c(OC)c3)N(c3nc(-c4ccccc4)cs3)NC2=O)cc(OC)c1OC [Compound 13a] = 4.71
COc1cc(C=C(NC(=O)c2cc(OC)c(OC)c(OC)c2)C(=O)NNC(=O)c2ccncc2)cc(OC)c1OC = 4.88

Q: Query (compound): COc1cc(C=C2N=C(c3cc(OC)c(OC)c(OC)c3)N(c3nc(-c4ccc(Br)cc4)cs3)NC2=O)cc(OC)c1OC [Compound 13c] ; field requested: pIC50
Ans: 4.99

Q: Query (compound): COc1ccc(/C=C\c2cc(OC)c(OC)c(OC)c2)cc1O [CA-4, Combretastatin-A4, reference compound] ; field requested: pIC50
Ans: 6.26

Q: Query (compound): COc1cc(C=C2N=C(c3cc(OC)c(OC)c(OC)c3)N(C(=O)c3cccc(OC(C)=O)c3)NC2=O)cc(OC)c1OC ; field requested: pIC50
Ans: 4.86

Q: Query (compound): COc1cc(C=C(NC(=O)c2cc(OC)c(OC)c(OC)c2)C(=O)NNC(=O)c2ccc(Br)cc2)cc(OC)c1OC ; field requested: pIC50
Ans: 4.40

Q: Query (compound): COc1cc(C=C2N=C(c3cc(OC)c(OC)c(OC)c3)N(C(N)=S)NC2=O)cc(OC)c1OC ; field requested: pIC50
Ans: 5.38

Q: Query (compound): COc1cc(C(=O)N/C=C(\C(=O)NNc2nc(-c3ccccc3)cs2)c2cc(OC)c(OC)c(OC)c2)cc(OC)c1OC [Compound 11a] ; field requested: pIC50
Ans: 5.21

###

The following molecules are listed with their measured pIC50 values.
- Test system: MDA-MB-231
- protocol_notes: MTT cytotoxic activity against breast MDA-MB-231 cancer cell line
- Type: cell-based
- run_conditions: Homo sapiens, MDA-MB-231; MTT assay, 24 h treatment
Schema: pIC50 number; meaning minus log10 of the concentration expressed in molar units.

Use the examples below as a reference point.
COc1cc(C=C(NC(=O)c2cc(OC)c(OC)c(OC)c2)C(=O)NNc2nc(-c3ccc(Br)cc3)cs2)cc(OC)c1OC [Compound 11c] = 4.59
COc1cc(C=C(NC(=O)c2cc(OC)c(OC)c(OC)c2)C(=O)NNc2nc(-c3cccc([N+](=O)[O-])c3)cs2)cc(OC)c1OC [Compound 11d] = 4.92
COc1cc(C=C(NC(=O)c2cc(OC)c(OC)c(OC)c2)C(=O)NNC(=O)c2cccc(O)c2)cc(OC)c1OC = 4.66
COc1cc(C=C2N=C(c3cc(OC)c(OC)c(OC)c3)N(c3ccccc3)NC2=O)cc(OC)c1OC = 5.87
COc1cc(C=C2N=C(c3cc(OC)c(OC)c(OC)c3)N(N)C2=O)cc(OC)c1OC = 4.24

Q: Query (molecule): COc1cc(C=C(NC(=O)c2cc(OC)c(OC)c(OC)c2)C(=O)NNC(=S)Nc2ccccc2)cc(OC)c1OC ; field requested: pIC50
Ans: 4.83

Q: Query (molecule): COc1cccc(-c2csc(N3NC(=O)C(=Cc4cc(OC)c(OC)c(OC)c4)N=C3c3cc(OC)c(OC)c(OC)c3)n2)c1 [Compound 13e] ; field requested: pIC50
Ans: 4.48

###

The following compounds are listed with their measured melting point values.

COc1cc(C=C(NC(=O)c2cc(OC)c(OC)c(OC)c2)C(=O)NNC(=S)Nc2ccccc2)cc(OC)c1OC = 212 to 214 °C

Q: Query (compound): COc1cc(C(=O)N/C=C(\C(=O)NNc2nc(-c3ccccc3)cs2)c2cc(OC)c(OC)c(OC)c2)cc(OC)c1OC [Compound 11a] ; field requested: melting point
Ans: 212 to 214 °C

Q: Query (compound): COc1cccc(-c2csc(NNC(=O)C(=Cc3cc(OC)c(OC)c(OC)c3)NC(=O)c3cc(OC)c(OC)c(OC)c3)n2)c1 [Compound 11e] ; field requested: melting point
Ans: 212 to 214 °C

Q: Query (compound): COc1cc(C=C2N=C(c3cc(OC)c(OC)c(OC)c3)N(C(=O)c3cccc(OC(C)=O)c3)NC2=O)cc(OC)c1OC (hydrate or solvate) ; field requested: melting point
Ans: 199 to 201 °C

Q: Query (compound): COc1cccc(-c2csc(N3NC(=O)C(=Cc4cc(OC)c(OC)c(OC)c4)N=C3c3cc(OC)c(OC)c(OC)c3)n2)c1 [Compound 13e] ; field requested: melting point
Ans: 212 to 214 °C

Q: Query (compound): CCOC(=O)Cc1csc(NNC(=O)C(=Cc2cc(OC)c(OC)c(OC)c2)NC(=O)c2cc(OC)c(OC)c(OC)c2)n1 ; field requested: melting point
Ans: 210 to 212 °C

###

- Test system: MDA-MB-231
- protocol_notes: MTT cytotoxic activity against breast MDA-MB-231 cancer cell line
- Type: cell-based
- run_conditions: Homo sapiens, MDA-MB-231; MTT assay, 24 h treatment
test_readout: pIC50
Schema: pIC50 number; meaning minus log10 of the concentration expressed in molar units.

Use the examples below as a reference point.
COc1cc(C=C2N=C(c3cc(OC)c(OC)c(OC)c3)N(c3nc(-c4ccc(Cl)cc4)cs3)NC2=O)cc(OC)c1OC [Compound 13b] = 4.68
COc1cc(C=C(NC(=O)c2cc(OC)c(OC)c(OC)c2)C(=O)NNc2nc(-c3ccc(Cl)cc3)cs2)cc(OC)c1OC [Compound 11b] = 5.07

Would you kindly look at the next entry?
Q: Query (molecule): COc1cc(C=C2N=C(c3cc(OC)c(OC)c(OC)c3)N(c3nc(-c4cccc([N+](=O)[O-])c4)cs3)NC2=O)cc(OC)c1OC [Compound 13d] ; field requested: pIC50
Ans: 5.50
